Each recorded value in this set is attributed to paper PMC2944806.

target: HLA class I molecule B*0702 (Homo sapiens, UniProt P01889); construct: purchased ProImmune Ltd., Oxford, UK; experiment: REVEAL HLA-peptide binding assay, B*0702; parameters: concentration or dose not given beside the values; conditions: assembly of peptide-HLA complex by ELISA with conformation-dependent anti-HLA antibody, relative to positive control peptide for that allele, comparable within an allele only
READOUT: Score (experimentally measured binding affinity, % binding compared to control peptide) (%)
Quick note: give the figure in %, leave out the unit.

Find the measured Score (experimentally measured binding affinity, % binding compared to control peptide) of SLVQLRQAL [HTLV-1 nonamer peptide] and report it.
119.22

Find the measured Score (experimentally measured binding affinity, % binding compared to control peptide) of TPKDKTKVL [HTLV-1 nonamer peptide from Gag] and report it.
113.7

Find the measured Score (experimentally measured binding affinity, % binding compared to control peptide) of KALMPVFTL [HTLV-1 nonamer peptide] and report it.
40.22

Find the measured Score (experimentally measured binding affinity, % binding compared to control peptide) of LEAERRKLL [HTLV-1 nonamer peptide] and report it.
1.08

Find the measured Score (experimentally measured binding affinity, % binding compared to control peptide) of PPNHRPWQM [HTLV-1 nonamer peptide] and report it.
103.11

Find the measured Score (experimentally measured binding affinity, % binding compared to control peptide) of TPNIPPSFL [HTLV-1 nonamer peptide] and report it.
138.52

Find the measured Score (experimentally measured binding affinity, % binding compared to control peptide) of RICPINYSL [HTLV-1 nonamer peptide] and report it.
110.59

Find the measured Score (experimentally measured binding affinity, % binding compared to control peptide) of LPVMHPHGA [HTLV-1 nonamer peptide] and report it.
9.38

Find the measured Score (experimentally measured binding affinity, % binding compared to control peptide) of GFGQSLLFG [HTLV-1 nonamer peptide] and report it.
0
